target: MtDXPS (Mycobacterium tuberculosis); test: biochemical; settings: Table 1A, indole derivatives, MtDXPS; read-out: K i*
reported property: pKi
Numbers only, as −log10 of the molar value.

Here are 3 molecules together with their reported answers.
N#Cc1ccc2c(CO)cn(Cc3ccc(Cl)c(Cl)c3)c2c1 5.77
COc1cccc2c(CO)cn(Cc3ccc(Cl)c(Cl)c3)c12 5.85
OCc1cn(Cc2ccc(Cl)cc2)c2ccccc12 5.26

Form field: reported pKi of `OCc1cn(Cc2ccc(Cl)c(Cl)c2)c2ccc(F)cc12`
6.40

----------
Exercise: state measured pIC50 for each of the compounds provided.
target: MtDXPS (Mycobacterium tuberculosis, UniProt P9WNS3); assay: biochemical; settings: Table S1, first round of LBVS; MtDXPS; read-out: IC50
Sequence (P9WNS3 whole entry, looked up): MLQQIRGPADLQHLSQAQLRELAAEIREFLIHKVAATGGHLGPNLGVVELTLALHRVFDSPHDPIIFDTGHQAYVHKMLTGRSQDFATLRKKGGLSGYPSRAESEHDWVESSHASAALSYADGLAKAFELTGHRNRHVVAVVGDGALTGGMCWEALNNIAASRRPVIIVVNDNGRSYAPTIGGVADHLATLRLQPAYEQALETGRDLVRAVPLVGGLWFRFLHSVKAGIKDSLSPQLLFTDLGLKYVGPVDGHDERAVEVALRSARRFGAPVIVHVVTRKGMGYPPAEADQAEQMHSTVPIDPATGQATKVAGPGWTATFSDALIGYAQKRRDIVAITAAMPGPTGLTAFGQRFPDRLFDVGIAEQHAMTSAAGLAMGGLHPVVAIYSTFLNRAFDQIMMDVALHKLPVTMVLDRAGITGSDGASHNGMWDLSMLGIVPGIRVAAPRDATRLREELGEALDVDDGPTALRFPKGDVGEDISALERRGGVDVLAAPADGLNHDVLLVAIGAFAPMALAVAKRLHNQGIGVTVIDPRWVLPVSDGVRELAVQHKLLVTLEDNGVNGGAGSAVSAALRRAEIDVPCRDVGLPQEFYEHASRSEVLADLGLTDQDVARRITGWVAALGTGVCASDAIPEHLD
pIC50: −log10 of the molar value.

Here are 5 compounds together with their reported answers.
compound	reported property	recorded value
OCc1cccnc1-c1nc2ccccc2s1 [Compound 61]	pIC50	< 4.22
S=c1[nH]ccn1Cc1ccccc1 [Compound 54]	pIC50	< 3.30
CN(C)Cc1ccc(O)cc1 [Compound 58]	pIC50	< 3.00
CCCCC(NS(=O)(=O)c1cc2c3c(c1)c(C)cc(=O)n3CC2)C(=O)O (stereo not drawn) [Compound 90]	pIC50	< 4.22
CCc1cc(C(N)=O)c(NC(=O)c2cccnc2)s1 [Compound 87]	pIC50	< 4.22

Provide reported pIC50 for each item, in the same order as listed.
1. CCC1CCC2(CC1)N=C(O)N(CC(=O)c1ccc3c(c1)CCC3)C2=O (stereo not drawn) [Compound 71]
2. CCn1c(S)nnc1-c1csc2c1CCCC2 [Compound 40]
3. Cc1ccccc1-n1c(S)nnc1-c1csc2c1CCCC2 [Compound 41]
4. COc1cc(/C=C2\C(=O)Nc3ccc(Br)cc32)cc(OC)c1O [Compound 88]

["< 4.22", "< 3.62", "< 5.10", "< 3.92"]

----------
tested on: A549; assay: toxicity against human cell lines; type: cell-based; conditions: A549, 48 h, read-out: Toxicity Human cell lines EC50 (μM) A549
reported property: EC50

Cc1nc(N)sc1-c1csc(Nc2ccc(C(F)(F)F)cc2)n1 > 50 µM
OCc1cn(Cc2ccc(Cl)c(Cl)c2)c2ccccc12 ~50 µM
OCc1cn(Cc2ccc(Cl)c(Cl)c2)c2ccc(F)cc12 > 50 µM

Provide reported EC50 for each item, in the same order as listed.
1. Nc1ccc(/C(Cc2ccc(Cl)cc2)=N/O)c(O)c1
2. ON=C(Cc1ccc(Cl)cc1)c1ccc(O)cc1O

1: ~50 µM; 2: > 50 µM

----------
target: UniProt:Q9RUB5; experiment: biochemical; format: biochemical; conditions: DrDXPS (WT) IC50, Fig. 2B; [ThDP] 0.1 μM (1.6x Km), [PYR] 0.5 mM (2.4x), [D-GAP] 0.5 mM (2.9x)
Sequence (Q9RUB5 whole entry, looked up): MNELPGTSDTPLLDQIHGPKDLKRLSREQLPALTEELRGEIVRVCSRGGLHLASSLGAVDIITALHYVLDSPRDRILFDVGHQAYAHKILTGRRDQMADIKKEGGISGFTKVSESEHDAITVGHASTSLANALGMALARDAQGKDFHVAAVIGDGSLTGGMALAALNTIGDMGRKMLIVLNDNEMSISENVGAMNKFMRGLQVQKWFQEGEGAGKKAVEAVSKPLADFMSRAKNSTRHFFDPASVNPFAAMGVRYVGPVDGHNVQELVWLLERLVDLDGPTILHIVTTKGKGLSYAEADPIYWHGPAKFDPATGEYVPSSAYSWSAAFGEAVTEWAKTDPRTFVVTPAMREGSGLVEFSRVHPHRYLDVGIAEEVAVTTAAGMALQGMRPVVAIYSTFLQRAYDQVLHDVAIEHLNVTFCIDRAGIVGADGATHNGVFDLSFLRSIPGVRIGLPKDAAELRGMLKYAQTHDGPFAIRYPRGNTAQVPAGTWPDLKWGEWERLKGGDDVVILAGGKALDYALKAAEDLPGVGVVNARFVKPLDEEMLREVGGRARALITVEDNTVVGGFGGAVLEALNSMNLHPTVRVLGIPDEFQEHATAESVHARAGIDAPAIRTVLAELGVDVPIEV
reported property: IC50 (µM)
Numbers only, in µM.

Form field: reported IC50 of Cc1ncc(Cc2csc(CCO)c2C)c(N)n1 [DZT, deazathiamine, reference compound]
273

----------
biological target: MtDXPS (Mycobacterium tuberculosis, UniProt P9WNS3); experiment: biochemical; settings: Table S2, second round of LBVS; MtDXPS; read-out: IC50
Exercise: state measured IC50 for each of the compounds provided.

Here are 3 compounds together with their reported answers.
compound	system tested	IC50
O/N=C(/c1ccccc1)c1ccccn1	MtDXPS (Mycobacterium tuberculosis, UniProt P9WNS3)	> 500 µM
Nc1ncc2c(n1)CN(Cc1ccc3c(c1)OCO3)C2=O	MtDXPS (Mycobacterium tuberculosis, UniProt P9WNS3)	> 260 µM
COc1ccc(OC/C(=N\O)c2ccc(O)cc2O)cc1	MtDXPS (Mycobacterium tuberculosis, UniProt P9WNS3)	> 300 µM

Provide reported IC50 for each item, in the same order as listed.
1. CC(C)Cc1nc2ccccc2n1Cc1ccc(Cl)cc1
2. CN(C)c1ccc(C2NC(N)=Nc3nc4ccccc4n32)cc1 (stereo not shown)

> 63 µM
> 200 µM

Provide reported IC50 for each item, in the same order as listed.
1. ON=C(c1ccccc1)c1ccccc1
2. Nc1ncc2c(n1)CN(Cc1ccccc1C(F)(F)F)C2=O
3. OCCc1nc2ccccc2n1Cc1ccc(F)cc1
4. Cc1ccc(/C(=N\O)c2ccc(O)cc2O)cc1
5. O=C1/C(=N\O)c2c(Cl)cccc2N1Cc1ccccc1
6. CCc1ccc(C2N=C(N)Nc3nc4ccccc4n32)cc1 (stereo not shown)

1. > 500 µM
2. > 380 µM
3. > 540 µM
4. > 1000 µM
5. > 30 µM
6. > 30 µM
